The reported numbers originate from patent US20140235701.

# study.system: NGF (nerve growth factor) (Homo sapiens, UniProt P01138 P01138:122-241)
# Sequence (P01138 122-241, one chain of several): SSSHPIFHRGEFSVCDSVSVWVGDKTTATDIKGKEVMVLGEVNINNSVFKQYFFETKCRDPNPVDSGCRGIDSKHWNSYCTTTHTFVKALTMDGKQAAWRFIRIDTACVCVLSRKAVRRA
# method.notes: cell_activity; neurite; TF-1 0.039
# experimental.setup: tags: R&D Systems; chain copies: 2
readout.kind: IC50 (nM)
Give the value in nM but do not write nM after it.

# query: IC50 of entry GGGUCCUGGAUAAGAGTUUCCGUCUCGUAUCCTGUUACCC (ssRNA, as 82(25) except dT17,dT33,dU36, 2'-OMe A37) [SEQ ID NO: 165] 0.139
